Listed binders paired with reported koff
- measuredTarget: T1, human CD3ε/δ-Fc fusion protein (soluble recombinant CD3ε/δ complex) (human, UniProt P04234 22-105)
- T1 construct: also called huCD3ε/δ; huCD3; not shown: hinge, CH2, CH3 of human IgG with tag
- T1 sequence (chain, as listed by the source mutant, chain 1 of 2): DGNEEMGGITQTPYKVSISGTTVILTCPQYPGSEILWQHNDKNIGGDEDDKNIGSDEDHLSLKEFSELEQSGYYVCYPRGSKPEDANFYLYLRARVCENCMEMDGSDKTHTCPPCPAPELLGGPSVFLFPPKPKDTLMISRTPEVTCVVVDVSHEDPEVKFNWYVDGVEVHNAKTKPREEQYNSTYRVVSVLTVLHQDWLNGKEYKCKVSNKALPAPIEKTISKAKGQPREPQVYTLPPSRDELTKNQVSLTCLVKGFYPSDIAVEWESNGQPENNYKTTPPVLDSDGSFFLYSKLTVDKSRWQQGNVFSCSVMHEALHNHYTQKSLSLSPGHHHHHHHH
- T1 sequence (P04234 22-105, stated change not applied, chain 2 of 2): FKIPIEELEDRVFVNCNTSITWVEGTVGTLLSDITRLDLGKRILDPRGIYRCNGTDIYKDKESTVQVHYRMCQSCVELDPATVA
- method: SPR Biacore, Fab
Report the value in s⁻¹ with no unit label.

>  <binder>
humanized 4B4 Fab 4B4_17 (VL2A, VH2B) (Fab, V domains shown, expressed as Fab-fragment) VH: EVQLVETGGGLVQPGGSLKLTCATSGFTFSNAWMHWVRQSPEKGLEWVAQIKARSNNYATYYADSVKGRFTISRDDSKSTIYLQMNSLRAEDTAIYYCRGTYYASKPFDYWGQGVMVTVSS VL: DVVMTQTPVSLSVSPGGPVSISCRSSQSLVHDNGNTYLSWSLQKPGQSPQVLIYKVSNRFSGVSDRFTGSGSGTDFTLKISRVEPDDLGVYYCGQGTQYPFTFGSGTKLEIK

>  <readout>
koff

>  <reportedValue>
0.00276

$$$$

# evaluate next
Task: Given the binder humanized 4B4 Fab 4B4_7 (VL1b, VH1A) (Fab, V domains shown, expressed as Fab-fragment) VH: QVQLVETGGGLVKPGQSLKLTCATSGFTFSNAWMHWVRQSPEKGLEWVAQIKARSNNYATYYAESVKGRFTISRDDSKSTIYLQMNSLTPEDTAIYYCRGTYYASKPFDYWGQGVMVTVSS VL: DVVMTQTPVSLSVSVGGRVSISCRSSQSLVHDNANTYLSWSLQKPGKSPKVLIYKVSNRFSGVSSRFTGSGSGTDFTLKISSVQPDDLGVYYCGQGTQYPFTFGSGTKLEIK , what is its reported koff?
Result: 0.00248
